Assay: clinical
Settings: human, in vivo, topical or ocular, Percent absorption, 3% plaster, […] 1.4 cm, 8 hr; mean ± S.E.
Procedure: An experiment was carried out on 7 subjects who were healthy male adults, 25-39 years old and weighing 50-63 kg each, as mentioned hereinbelow. […] The absorbency and amount absorbed were calculated from the following formulae: [formula]
PROPERTY_LABEL: Fa at 8 h (%)
Express it in %; write the number only.

I have this compound here, COc1ccc2c(c1)c(CC(=O)O)c(C)n2C(=O)c1ccc(Cl)cc1 [Indomethacin] , and I need its recorded Fa at 8 h.
4.28

###

Assay: clinical
Conditions: human, in vivo, topical or ocular, Percent absorption, 1% plaster, […] 1.4 cm, 4 hr; mean ± S.E.
PROPERTY_LABEL: Fa at 4 h (%)
Express it in %; write the number only.

I have this molecule here, COc1ccc2c(c1)c(CC(=O)O)c(C)n2C(=O)c1ccc(Cl)cc1 , and I need its recorded Fa at 4 h.
1.27

###

Assay: clinical
Details: human, in vivo, topical or ocular, Percent absorption
PROPERTY_LABEL: Fa at 4 h (%)
Express it in %; write the number only.

I have this molecule here, CC(C(=O)O)c1ccc(-c2ccccc2)c(F)c1 (stereo not shown) , and I need its recorded Fa at 4 h.
5.53

###

Experiment: clinical
Conditions: human, in vivo, topical or ocular, Percent absorption, 3% plaster, […] 1.4 cm, 4 hr; mean ± S.E.
PROPERTY_LABEL: Fa at 4 h
Respond with the figure and its unit, in that order.

I have this compound here, COc1ccc2c(c1)c(CC(=O)O)c(C)n2C(=O)c1ccc(Cl)cc1 [Indomethacin] , and I need its recorded Fa at 4 h.
3.52%

###

Experiment: clinical
Conditions: human, in vivo, topical or ocular, Percent absorption
PROPERTY_LABEL: Fa at 8 h (%)
Express it in %; write the number only.

I have this compound here, CC(C(=O)O)c1ccc(-c2ccccc2)c(F)c1 (stereo not shown) , and I need its recorded Fa at 8 h.
6.54
